This section presents compounds with their documented GI50 values.
System: ACHN
Experiment: NCI tumour cell line growth inhibition, 48 h
Active and inactive are the calls of the source. Rule as the data show it: active = GI50 up to about 1.1 µM and inactive = higher.

- CCOC1CN(C)/C(=N\c2cccc3ccccc23)S1 (stereo not given): > 10 µM (inactive)
- CC1=CC(=O)C(=O)C2=C1OC1(C2)C(C)CCC2C3(C)CCC(O)C(C)(C)C3CCC21C (stereo not given): 16.9 µM (inactive)
- Nc1nc(Cl)c(CO)c(NCC2(CO)CC(CCc3ccccc3)C2)n1 (stereo not given): 24.4 µM (inactive)
- O=c1oc2ccc3ccccc3c2cc1-c1nc2ccccc2s1: > 100 µM (inactive)

Could you now look at the following compound, please?
Challenge: What value of GI50 on ACHN does COC(=O)C(C(=O)C(=O)Nc1ccc([N+](=O)[O-])cc1)c1nc2cc(C)c(C)cc2nc1O (stereo not given) have?
Response given: > 100 µM (inactive)
